# Target Desc: UniProt:Q14524
# Assay Explanation: Late INa screening assay (QPatch whole cell patch clamp)
# Type: cell-based
# Condition Notes: percent block of late INa, compound at 1 μM, 10 μM Tefluthrin, HEK293 hNav1.5; read-out: Late INa 1 μM
Each entry below lists one item and its recorded inhibition at 1 µM value.

[
  {
    "Compound": "O=c1c2cc(-c3ccc(OC(F)(F)F)cc3)ccc2cnn1CCOc1ncc(Cl)cn1 [III-37]",
    "inhibition at 1 µM (%)": 50
  },
  {
    "Compound": "O=C(NC1CC1)N1CCc2ccc(-c3ccc(C(F)(F)F)cc3)cc2C1 [IX-44]",
    "inhibition at 1 µM (%)": 27
  },
  {
    "Compound": "COc1cc(OC)nc(Cn2nnc3ccc(-c4ccc(OC(F)(F)F)cc4)cc3c2=O)n1 [II-44]",
    "inhibition at 1 µM (%)": 47
  },
  {
    "Compound": "O=C1c2cc(-c3ccc(C(F)(F)F)cc3)ccc2OCN1Cc1ccccc1 [VIII-21]",
    "inhibition at 1 µM (%)": 58
  },
  {
    "Compound": "Cc1cc(C)n(CCn2ncc3ccc(-c4ccc(OC(F)(F)F)cc4)cc3c2=O)n1 [III-24]",
    "inhibition at 1 µM (%)": 28
  }
]

---

# Target Desc: wild-type human cardiac sodium channel, hNav1.5 (late INa) (Homo sapiens)
# Sequence (Q14524 whole entry): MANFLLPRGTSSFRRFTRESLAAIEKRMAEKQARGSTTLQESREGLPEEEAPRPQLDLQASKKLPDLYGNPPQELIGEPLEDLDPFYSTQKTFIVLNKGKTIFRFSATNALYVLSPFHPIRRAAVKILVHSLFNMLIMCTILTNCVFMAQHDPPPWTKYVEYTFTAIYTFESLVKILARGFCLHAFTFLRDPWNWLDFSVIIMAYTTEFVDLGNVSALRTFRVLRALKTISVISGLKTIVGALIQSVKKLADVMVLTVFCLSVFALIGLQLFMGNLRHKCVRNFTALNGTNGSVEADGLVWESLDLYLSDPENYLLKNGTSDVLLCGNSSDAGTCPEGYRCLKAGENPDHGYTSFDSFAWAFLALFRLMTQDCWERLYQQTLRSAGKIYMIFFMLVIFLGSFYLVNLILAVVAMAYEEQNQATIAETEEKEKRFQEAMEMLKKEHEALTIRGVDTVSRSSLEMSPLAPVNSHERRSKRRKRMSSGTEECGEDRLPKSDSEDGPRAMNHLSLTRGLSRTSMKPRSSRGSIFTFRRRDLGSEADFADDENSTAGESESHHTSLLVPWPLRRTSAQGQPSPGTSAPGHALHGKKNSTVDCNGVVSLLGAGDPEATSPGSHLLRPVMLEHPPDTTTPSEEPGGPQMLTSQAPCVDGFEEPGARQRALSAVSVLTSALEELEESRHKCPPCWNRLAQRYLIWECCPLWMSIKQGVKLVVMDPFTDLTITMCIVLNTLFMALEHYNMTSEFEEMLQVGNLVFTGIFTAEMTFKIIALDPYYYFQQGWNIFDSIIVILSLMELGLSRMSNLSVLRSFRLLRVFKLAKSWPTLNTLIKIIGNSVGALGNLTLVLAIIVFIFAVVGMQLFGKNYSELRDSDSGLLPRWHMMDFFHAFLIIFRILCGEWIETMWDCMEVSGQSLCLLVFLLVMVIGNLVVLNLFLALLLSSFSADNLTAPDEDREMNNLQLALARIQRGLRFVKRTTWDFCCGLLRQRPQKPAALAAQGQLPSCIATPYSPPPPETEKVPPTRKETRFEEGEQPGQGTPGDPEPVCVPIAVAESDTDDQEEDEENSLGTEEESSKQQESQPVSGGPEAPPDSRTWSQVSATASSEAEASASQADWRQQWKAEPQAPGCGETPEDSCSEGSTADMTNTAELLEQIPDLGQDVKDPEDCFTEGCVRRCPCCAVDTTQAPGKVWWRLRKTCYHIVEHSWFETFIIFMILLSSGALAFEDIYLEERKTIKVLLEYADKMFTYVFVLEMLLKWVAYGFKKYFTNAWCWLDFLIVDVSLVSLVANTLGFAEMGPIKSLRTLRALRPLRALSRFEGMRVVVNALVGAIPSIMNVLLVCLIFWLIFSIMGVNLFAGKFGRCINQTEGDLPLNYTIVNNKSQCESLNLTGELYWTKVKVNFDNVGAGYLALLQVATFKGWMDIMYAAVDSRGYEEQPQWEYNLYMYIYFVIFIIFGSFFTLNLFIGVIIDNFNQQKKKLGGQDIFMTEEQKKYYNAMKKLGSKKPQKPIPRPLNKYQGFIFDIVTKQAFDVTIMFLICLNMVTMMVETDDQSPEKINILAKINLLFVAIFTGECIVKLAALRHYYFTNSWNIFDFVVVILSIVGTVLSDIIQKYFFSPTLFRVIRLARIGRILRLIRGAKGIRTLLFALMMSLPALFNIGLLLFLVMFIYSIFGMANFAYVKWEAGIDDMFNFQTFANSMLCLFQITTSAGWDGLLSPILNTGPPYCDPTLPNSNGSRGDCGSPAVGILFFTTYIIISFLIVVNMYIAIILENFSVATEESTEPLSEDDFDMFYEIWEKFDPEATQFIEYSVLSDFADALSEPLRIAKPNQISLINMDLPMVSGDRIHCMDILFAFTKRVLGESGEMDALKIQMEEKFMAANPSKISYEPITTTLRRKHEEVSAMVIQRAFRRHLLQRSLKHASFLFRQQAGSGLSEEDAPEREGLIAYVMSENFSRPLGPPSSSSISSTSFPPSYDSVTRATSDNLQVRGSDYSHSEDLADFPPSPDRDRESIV
# Assay Explanation: Late INa screening assay (QPatch whole cell patch clamp)
# Type: cell-based
# Condition Notes: % inhibition at 1 μM; read-out: NAv1.5*-LATE-

[
  {
    "Compound": "O=C1c2cc(-c3ccc(OC(F)(F)F)cc3)ccc2OCN1Cc1ncccn1 [VIII-20]",
    "Endpoint Unit": "%",
    "inhibition at 1 µM": 62
  },
  {
    "Compound": "O=C1c2cc(-c3ccc(C(F)(F)F)cc3)ccc2OCN1Cc1ccccn1 [VIII-1]",
    "Endpoint Unit": "%",
    "inhibition at 1 µM": 52
  },
  {
    "Compound": "Cn1cnc(C(=O)N2CCc3ccc(-c4ccc(C(F)(F)F)cc4)cc3C2)c1 [IX-39]",
    "Endpoint Unit": "%",
    "inhibition at 1 µM": 30
  },
  {
    "Compound": "Cc1nc(Cn2cnc3ccc(-c4ccc(OC(F)(F)F)cc4)cc3c2=O)no1 [IV-9]",
    "Endpoint Unit": "%",
    "inhibition at 1 µM": 42
  },
  {
    "Compound": "O=c1c2cc(-c3ccc(OC(F)(F)F)cc3)ccc2cnn1Cc1ncc(Cl)cn1 [III-35]",
    "Endpoint Unit": "%",
    "inhibition at 1 µM": 38
  },
  {
    "Compound": "O=C(c1ncccc1F)N1CCc2ccc(-c3ccc(C(F)(F)F)cc3)cc2C1 [IX-25]",
    "Endpoint Unit": "%",
    "inhibition at 1 µM": 57
  },
  {
    "Compound": "O=C1c2cc(-c3ccc(OC(F)(F)F)cc3)ccc2OCN1Cc1ccccn1 [VIII-3]",
    "Endpoint Unit": "%",
    "inhibition at 1 µM": 58
  },
  {
    "Compound": "O=c1c2cc(-c3ccc(OC(F)(F)F)cc3)ccc2nnn1Cc1noc(-c2ccccn2)n1 [II-54]",
    "Endpoint Unit": "%",
    "inhibition at 1 µM": 52
  },
  {
    "Compound": "O=c1c2cc(-c3ccc(OC(F)(F)F)cc3)ccc2nnn1Cc1noc(C2CC2)n1 [II-14]",
    "Endpoint Unit": "%",
    "inhibition at 1 µM": 68
  }
]

---

# Assay Explanation: Microsomal stability assay, dog
# Assay type: in vitro ADME
# Condition Notes: metabolic stability, dog liver microsomes 0.5 mg/mL, substrate 3 uM
# Experimental: The micorsomal stability assay is generally performed as follows. Format: 15 compounds (and 1 control verapamil) in 3 different species in duplicate sets Substrate: 3 uM Protein concentration: 0.5 mg/mL (for dog, rat, and human liver microsomes) Cofactor: 1×NADPH-Regenerating system Time-points: 2, 12, 25, 45, and 65 minutes [table] Sample preparation: 25 uL at each timepoint is added to plate with 225 uL quenching solution (50% MeOH, 25% ACN, 25% H2O, and 50 nM test compound). […]

[
  {
    "Smiles Input": "Cc1ccn(CCn2ncc3ccc(-c4ccc(OC(F)(F)F)cc4)cc3c2=O)n1",
    "MS Dog THalf": "28 min"
  },
  {
    "Smiles Input": "O=C(c1ncccc1F)N1CCc2ccc(-c3ccc(C(F)(F)F)cc3)cc2C1",
    "MS Dog THalf": "97 min"
  },
  {
    "Smiles Input": "O=c1c2cc(-c3ccc(OC(F)(F)F)cc3)ccc2cnn1Cc1ncc(Cl)cn1",
    "MS Dog THalf": "85 min"
  },
  {
    "Smiles Input": "O=C1c2cc(-c3ccc(OC(F)(F)F)cc3)ccc2SCN1Cc1ncccn1",
    "MS Dog THalf": "164 min"
  },
  {
    "Smiles Input": "Cc1noc(Cn2cnc3ccc(-c4ccc(OC(F)(F)F)cc4)cc3c2=O)n1",
    "MS Dog THalf": "158 min"
  },
  {
    "Smiles Input": "N#CC1(c2ccc(-c3ccc4nnn(CCOc5ncccn5)c(=O)c4c3)cc2)CC1",
    "MS Dog THalf": "159 min"
  },
  {
    "Smiles Input": "O=c1c2cc(-c3ccc(OC(F)(F)F)cc3)ccc2cnn1CCc1ccncn1",
    "MS Dog THalf": "31 min"
  },
  {
    "Smiles Input": "Cc1ncc(Cn2nnc3ccc(-c4ccc(OC(F)(F)F)cc4)cc3c2=O)o1",
    "MS Dog THalf": "169 min"
  },
  {
    "Smiles Input": "O=c1c2cc(-c3ccc(OC(F)(F)F)cc3)ccc2cnn1CCn1cccn1",
    "MS Dog THalf": "27 min"
  }
]

---

# Target Desc: UniProt Q12809
# Sequence (Q12809 whole entry): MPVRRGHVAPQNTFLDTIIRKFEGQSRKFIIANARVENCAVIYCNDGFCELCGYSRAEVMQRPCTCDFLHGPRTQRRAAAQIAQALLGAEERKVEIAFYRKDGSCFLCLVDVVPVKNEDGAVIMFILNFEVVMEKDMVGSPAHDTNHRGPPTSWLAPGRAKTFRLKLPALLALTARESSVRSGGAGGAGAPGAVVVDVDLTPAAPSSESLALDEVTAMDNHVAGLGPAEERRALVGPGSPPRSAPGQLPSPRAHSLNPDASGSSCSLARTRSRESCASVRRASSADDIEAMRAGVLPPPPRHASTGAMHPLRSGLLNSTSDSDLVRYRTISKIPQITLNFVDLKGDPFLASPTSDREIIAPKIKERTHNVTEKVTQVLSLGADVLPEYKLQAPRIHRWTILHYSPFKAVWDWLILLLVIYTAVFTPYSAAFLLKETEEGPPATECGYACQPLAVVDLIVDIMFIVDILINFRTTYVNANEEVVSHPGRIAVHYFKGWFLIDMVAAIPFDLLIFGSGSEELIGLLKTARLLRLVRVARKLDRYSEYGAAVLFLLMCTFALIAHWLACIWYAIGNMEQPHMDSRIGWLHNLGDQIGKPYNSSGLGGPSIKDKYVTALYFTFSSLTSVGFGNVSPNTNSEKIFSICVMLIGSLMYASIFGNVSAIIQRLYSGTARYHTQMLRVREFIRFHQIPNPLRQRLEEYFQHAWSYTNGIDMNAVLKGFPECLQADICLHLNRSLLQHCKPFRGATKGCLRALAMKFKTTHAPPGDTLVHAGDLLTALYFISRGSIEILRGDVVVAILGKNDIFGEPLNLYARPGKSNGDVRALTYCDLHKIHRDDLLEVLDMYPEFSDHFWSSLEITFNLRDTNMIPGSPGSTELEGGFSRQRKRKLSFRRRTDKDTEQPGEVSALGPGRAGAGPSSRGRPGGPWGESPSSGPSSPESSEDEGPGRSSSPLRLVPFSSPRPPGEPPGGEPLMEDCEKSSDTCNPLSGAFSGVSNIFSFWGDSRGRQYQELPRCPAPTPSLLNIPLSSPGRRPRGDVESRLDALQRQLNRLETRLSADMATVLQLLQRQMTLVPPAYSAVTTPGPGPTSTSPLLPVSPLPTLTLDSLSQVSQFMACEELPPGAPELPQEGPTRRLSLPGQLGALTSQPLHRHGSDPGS
# Assay Explanation: hERG screening assay (PatchXpress, CHO cells)
# Format: cell-based
# Condition Notes: % inhibition at 1 μM
// reported HERG* for each item listed
Readout Name: HERG* (%)

[
  {
    "Compound": "CC1Oc2ccc(-c3ccc(OC(F)(F)F)cc3)cc2C(=O)N1Cc1ncccn1 (stereo not drawn) [VIII-7]",
    "Bound Sign": "<",
    "Reported Result": 10
  },
  {
    "Compound": "O=c1c2cc(-c3ccc(OC(F)(F)F)cc3)ccc2nnn1C1CCNCC1 [II-38]",
    "Bound Sign": "=",
    "Reported Result": 58
  },
  {
    "Compound": "Cc1noc(Cn2cnc3ccc(-c4ccc(OC(F)(F)F)cc4)cc3c2=O)n1 [IV-6]",
    "Bound Sign": "<",
    "Reported Result": 10
  },
  {
    "Compound": "O=c1c2cc(-c3ccc(OC(F)(F)F)cc3)ccc2cnn1Cc1ncc(Cl)cn1 [III-35]",
    "Bound Sign": "=",
    "Reported Result": 17
  },
  {
    "Compound": "O=C(c1ncccn1)N1CCc2ccc(-c3ccc(C(F)(F)F)cc3)cc2C1 [IX-7]",
    "Bound Sign": "<",
    "Reported Result": 10
  },
  {
    "Compound": "N#Cc1ccnc(OCCn2nnc3ccc(-c4ccc(OC(F)(F)F)cc4)cc3c2=O)n1 [II-36]",
    "Bound Sign": "=",
    "Reported Result": 21
  },
  {
    "Compound": "Cn1cnc(C(=O)N2CCc3ccc(-c4ccc(C(F)(F)F)cc4)cc3C2)c1 [IX-39]",
    "Bound Sign": "=",
    "Reported Result": 35
  },
  {
    "Compound": "O=C(c1cccnn1)N1CCc2ccc(-c3ccc(C(F)(F)F)cc3)cc2C1 [IX-17]",
    "Bound Sign": "=",
    "Reported Result": 76
  },
  {
    "Compound": "O=C1c2cc(-c3ccc(C(F)(F)F)cc3)ccc2CCN1Cc1ncccn1 [IX-3]",
    "Bound Sign": "=",
    "Reported Result": 14
  }
]

---

Measured inhibition at 1 µM of individual entries
# Target Desc: wild-type human cardiac sodium channel, hNav1.5 (peak INa) (Homo sapiens, UniProt Q14524)
# Assay Explanation: Peak INa screening assay (tonic and use-dependent block)
# Assay type: cell-based
# Condition Notes: use-dependent block of peak INa, 3 Hz, 1 μM; read-out: Peak UDB 1 μM

[
  {
    "Molecule": "O=c1c2cc(-c3ccc(OC(F)(F)F)cc3)ccc2cnn1CCOc1nccc(C2CC2)n1 [III-29]",
    "Endpoint Unit": "%",
    "inhibition at 1 µM": 9
  },
  {
    "Molecule": "O=c1c2cc(-c3ccc(Oc4ccc(Cl)cc4)cc3)ccc2nnn1CCn1cccn1 [II-29]",
    "Endpoint Unit": "%",
    "inhibition at 1 µM": 67
  },
  {
    "Molecule": "Cc1cnc(Cn2nnc3ccc(-c4ccc(OC(F)(F)F)cc4)cc3c2=O)o1 [II-96]",
    "Endpoint Unit": "%",
    "inhibition at 1 µM": 5
  },
  {
    "Molecule": "O=C(c1ccccn1)N1CCc2ccc(-c3ccc(C(F)(F)F)cc3)cc2C1 [IX-6]",
    "Endpoint Unit": "%",
    "inhibition at 1 µM": 37
  },
  {
    "Molecule": "O=C1c2cc(-c3ccc(C(F)(F)F)cc3)ccc2SCN1Cc1ccccn1 [Compound X-3]",
    "Endpoint Unit": "%",
    "inhibition at 1 µM": 35
  },
  {
    "Molecule": "O=c1c2cc(-c3ccc(OC(F)(F)F)cc3)ccc2cnn1CCOc1ncc(Cl)cn1 [III-37]",
    "Endpoint Unit": "%",
    "inhibition at 1 µM": 4
  },
  {
    "Molecule": "O=C(Cc1ccccn1)N1CCc2ccc(-c3ccc(C(F)(F)F)cc3)cc2C1 [IX-29]",
    "Endpoint Unit": "%",
    "inhibition at 1 µM": 12
  },
  {
    "Molecule": "O=C1c2cc(-c3ccc(C(F)(F)F)cc3)ccc2OCN1Cc1ccccn1 [VIII-1]",
    "Endpoint Unit": "%",
    "inhibition at 1 µM": 26
  },
  {
    "Molecule": "O=C1c2cc(-c3ccc(OC(F)(F)F)cc3)ccc2OCN1Cc1ccccn1 [VIII-3]",
    "Endpoint Unit": "%",
    "inhibition at 1 µM": 12
  },
  {
    "Molecule": "COc1cc(OC)nc(Cn2nnc3ccc(-c4ccc(OC(F)(F)F)cc4)cc3c2=O)n1 [II-44]",
    "Endpoint Unit": "%",
    "inhibition at 1 µM": 4
  },
  {
    "Molecule": "Cc1cc(Cn2nnc3ccc(-c4ccc(OC(F)(F)F)cc4)cc3c2=O)on1 [II-25]",
    "Endpoint Unit": "%",
    "inhibition at 1 µM": 2
  },
  {
    "Molecule": "Cc1noc(Cn2nnc3ccc(-c4ccc(C5CC5)cc4)cc3c2=O)n1 [II-73]",
    "Endpoint Unit": "%",
    "inhibition at 1 µM": 1
  },
  {
    "Molecule": "Cc1nc(Cn2nnc3ccc(-c4ccc(OC(F)(F)F)cc4)cc3c2=O)co1 [II-99]",
    "Endpoint Unit": "%",
    "inhibition at 1 µM": 0
  },
  {
    "Molecule": "O=C1c2cc(-c3ccc(C(F)(F)F)cc3)ccc2SCN1Cc1ncccc1F [Compound X-6]",
    "Endpoint Unit": "%",
    "inhibition at 1 µM": 32
  },
  {
    "Molecule": "O=c1c2cc(-c3ccc(OC(F)(F)F)cc3)ccc2nnn1Cc1noc(-c2ccccn2)n1 [II-54]",
    "Endpoint Unit": "%",
    "inhibition at 1 µM": 8
  },
  {
    "Molecule": "O=c1c2cc(-c3ccc(OC(F)(F)F)cc3)ccc2nnn1Cc1ncccn1 [II-24]",
    "Endpoint Unit": "%",
    "inhibition at 1 µM": 24
  },
  {
    "Molecule": "O=c1c2cc(-c3ccc(OC(F)(F)F)cc3)ccc2nnn1CC1(CO)CC1 [II-75]",
    "Endpoint Unit": "%",
    "inhibition at 1 µM": 7
  },
  {
    "Molecule": "O=c1c2cc(-c3ccc(OC(F)(F)F)cc3)ccc2nnn1Cc1ncc(Cl)cn1 [II-4]",
    "Endpoint Unit": "%",
    "inhibition at 1 µM": 4
  },
  {
    "Molecule": "O=C(c1ncccc1F)N1CCc2ccc(-c3ccc(C(F)(F)F)cc3)cc2C1 [IX-25]",
    "Endpoint Unit": "%",
    "inhibition at 1 µM": 33
  }
]
